measurementProtocol: small-molecule microarray binders of probe aDKK1, primary screen, biochemical, biotinylated probe, 635/667 nm fluorescence (AID 1099);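 further: score merges 667nm spot fluorescence with signal to noise across triplicate slides; reference of the scale not given here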
testSettings: higher = more signal
endpointName: composite z-score
Write the number on its own, no unit after it.

{"molecule": "COC(=O)c1c(CC[C@@H](CO)NC(=O)NCCn2cc(C3(O)CCCC3)nn2)oc(C(C)=O)c1C(=O)OC", "composite z-score": -0.147}
{"molecule": "O=C1C2C=CC(C(O)CCc3ccccc3)N(Nc3ccccc3F)C2C(=O)N1c1ccccc1 (centres undefined)", "composite z-score": 0.909}

**Q:** Query: composite z-score; subject: CC(C)NC(=O)[C@@H]1c2ccccc2C(=O)N(C2Cc3ccccc3C2)[C@H]1c1ccc(CO)cc1
**A:** 0.172

**Q:** Subsequent entry: COc1ccc(CCNC(=O)[C@@]2(Sc3ccc(C)cc3)CC(=O)N(C(C)C)[C@@H]2c2ccc(CO)cc2I)cc1
**A:** 0.187
